target: K-Ras G13C (Homo sapiens (Human), UniProt P01116+P62937, G13C); experiment: Ras-Raf (BRAF RBD) disruption / FRET / MOA assay, KRAS G13C; format: biochemical; conditions: KRAS G13C; Ras-Raf disruption/FRET/MOA assay; read-out: IC50* KRAS G13C FRET data
Sequence (P01116-2 other isoform, or with tags, fused parts or gaps G13C): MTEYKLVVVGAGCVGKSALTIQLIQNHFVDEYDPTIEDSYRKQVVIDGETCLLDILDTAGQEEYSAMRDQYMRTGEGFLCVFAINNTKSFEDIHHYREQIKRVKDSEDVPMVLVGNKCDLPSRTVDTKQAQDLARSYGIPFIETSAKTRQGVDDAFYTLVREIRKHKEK
Sequence (P62937 whole entry): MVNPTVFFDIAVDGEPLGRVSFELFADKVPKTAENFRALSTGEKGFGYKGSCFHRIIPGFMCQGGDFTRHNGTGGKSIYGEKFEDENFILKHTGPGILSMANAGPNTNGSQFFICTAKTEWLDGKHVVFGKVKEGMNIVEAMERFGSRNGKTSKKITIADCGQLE
experimental-readout: IC50

>>> result("C=CC(=O)N1CC[C@H](C(=O)N(C)[C@H](C(=O)N[C@H]2Cc3csc(n3)-c3ccc4c(c3)c(c(-c3cc(N5CCN(C)CC5)cnc3[C@H](C)OC)n4CC(F)(F)F)CC(C)(C)COC(=O)[C@@H]3CCCN(N3)C2=O)C(C)C)C1")
"100 to 1000 nM"
>>> result("C=CC(=O)N1CC[C@H](C(=O)N(C)[C@H](C(=O)N[C@H]2Cc3cc(O)cc(c3)-c3ccc4c(c3)c(c(-c3ncn(C)c3[C@H](C)OC)n4CC)CC(C)(C)COC(=O)[C@@H]3CCCN(N3)C2=O)C(C)C)C1")
"1000 to 10000 nM"
>>> result("CC#CC(=O)N1CC[C@]2(CCN([C@H](C(=O)N[C@H]3Cc4cccc(c4)-c4ccc5c(c4)c(c(-c4cccnc4[C@H](C)OC)n5CC)CC(C)(C)COC(=O)[C@@H]4CCCN(N4)C3=O)C(C)C)C2=O)C1 (atropisomer, axis not shown)")
"100 to 1000 nM"
>>> result("C=CC(=O)N1CC(OCC(C(=O)N[C@H]2Cc3cc(cc(C(F)F)c3)-c3ccc4c(c3)c(c(-c3cccnc3[C@H](C)OC)n4CC)CC(C)(C)COC(=O)[C@@H]3CCCN(N3)C2=O)C(C)C)C1 (mixture of isomers)")
"> 10000 nM"
>>> result("C=CC(=O)N1CC[C@H](C(=O)N(C)[C@H](C(=O)NC2C[C@H]3CN(CCCO3)c3ccc4c(c3)c(c(-c3cccnc3[C@H](C)OC)n4CC)CC(C)(C)COC(=O)[C@@H]3CCCN(N3)C2=O)C(C)C)C1 (single isomer, unassigned)")
"> 10000 nM"
>>> result("C=CC(=O)N1CCO[C@H]2CN(C(=O)N(C)[C@H](C(=O)N[C@H]3Cc4nc(cs4)-c4ccc5c(c4)c(c(-c4cccnc4[C@H](C)OC)n5CC)CC(C)(C)COC(=O)[C@@H]4CCCN(N4)C3=O)C(C)C)C[C@H]21 (atropisomer, axis not shown)")
"10 to 100 nM"
>>> result("C=CC(=O)N1CC[C@H](C(=O)N(C)[C@H](C(=O)N[C@H]2Cc3nc(ns3)-c3ccc4c(c3)c(c(-c3cccnc3[C@H](C)OC)n4CC)CC(C)(C)COC(=O)[C@@H]3CCCN(N3)C2=O)C(C)C)C1 (atropisomer, axis not shown)")
"> 10000 nM"
>>> result("CCn1c(-c2cccnc2[C@H](C)OC)c2c3cc(ccc31)-c1cccc(c1)C[C@H](NC(=O)[C@H](C(C)C)N(C)C(=O)[C@H]1CCN(C(=O)/C=C/CN3CC(OC)C3)C1)C(=O)N1CCC[C@H](N1)C(=O)OCC(C)(C)C2 (atropisomer, axis not shown) [Example A204]")
"1000 to 10000 nM"

* * *

Reported IC50 by item:
Biological target: K-Ras G13C (Homo sapiens (Human), UniProt P01116+P62937, G13C)
Test: Ras-Raf (BRAF RBD) disruption / FRET / MOA assay, KRAS G13C
Type: biochemical
Conditions: KRAS G13C; Ras-Raf disruption/FRET/MOA assay; read-out: IC50* KRAS G13C FRET data
Procedure: The purpose of this biochemical assay is to measure the ability of test compounds to facilitate ternary complex formation between a nucleotide-loaded Ras isoform and cyclophilin A; the resulting ternary complex disrupts binding to a BRAF^RBD construct, inhibiting Ras signaling through a RAF effector. Compound is present in plate wells as a 10-point 3-fold dilution series starting at a final concentration of 30 μM. […]
experimental-readout: IC50

>>> result("C=CC(=O)N1CC2(C1)OCN([C@H](C(=O)N[C@H]1Cc3cccc(c3)-c3ccc4c(c3)c(c(-c3cccnc3[C@H](C)OC)n4CC)CC(C)(C)COC(=O)[C@@H]3CCCN(N3)C1=O)C(C)C)C2=O (atropisomer, axis not shown)")
"10 to 100 nM"
>>> result("C=CC(=O)N(C)C(=O)N(C)[C@H](C(=O)N[C@H]1Cc2nc(cs2)-c2ccc3c(c2)c(c(-c2cccnc2[C@H](C)OC)n3CC)CC(C)(C)COC(=O)[C@@H]2CCCN(N2)C1=O)C(C)C (atropisomer, axis not shown)")
"> 10000 nM"
>>> result("C=CC(=O)N1CCC[C@@H]2CN(C(=O)N(C)[C@H](C(=O)N[C@H]3Cc4nc(cs4)-c4ccc5c(c4)c(c(-c4cccnc4[C@H](C)OC)n5CC)CC(C)(C)COC(=O)[C@@H]4CCCN(N4)C3=O)C(C)C)C[C@@H]21 (atropisomer, axis not shown)")
"100 to 1000 nM"
>>> result("C=CC(=O)NC[C@H]1CCN1C(=O)N(C)[C@H](C(=O)N[C@H]1Cc2nc(cs2)-c2ccc3c(c2)c(c(-c2cccnc2[C@H](C)OC)n3CC)CC(C)(C)COC(=O)[C@@H]2CCCN(N2)C1=O)C(C)C (atropisomer, axis not shown)")
"100 to 1000 nM"
>>> result("CO[C@@H](C)c1ncccc1-c1c2c3cc(ccc3n1CC(F)(F)F)-c1nc(co1)C[C@H](NC(=O)[C@H](C(C)C)N(C)C(=O)C1(F)CCN(C(=O)C#CC(C)(C)N(C)C)CC1)C(=O)N1CCC[C@H](N1)C(=O)OCC(C)(C)C2 (atropisomer, axis not shown)")
"10 to 100 nM"
>>> result("C=CC(=O)N1CC[C@H](C(=O)N(C)[C@H](C(=O)N[C@H]2Cc3cccc(c3)-c3ccc4c(c3)c(c(-c3cnccc3COC)n4CC)CC(C)(C)COC(=O)[C@@H]3CCCN(N3)C2=O)C(C)C)C1 (atropisomer, axis not shown)")
"1000 to 10000 nM"
>>> result("CO[C@@H](C)c1ncccc1-c1c2c3cc(ccc3n1CC(F)(F)F)-c1csc(n1)C[C@H](NC(=O)[C@H](C(C)C)N(C)C(=O)N1C[C@@H]3OCCN(C(=O)/C=C/CN(C)C)[C@@H]3C1)C(=O)N1CCC[C@H](N1)C(=O)OCC(C)(C)C2 (atropisomer, axis not shown)")
"10 to 100 nM"
>>> result("CCn1c(-c2cccnc2[C@H](C)OC)c2c3cc(ccc31)-c1cccc(c1)C[C@H](NC(=O)[C@H](C(C)C)N1CCC3(CN(C(=O)C#CC(C)(C)N(C)C)C3)C1=O)C(=O)N1CCC[C@H](N1)C(=O)OCC(C)(C)C2 (atropisomer, axis not shown)")
"100 to 1000 nM"
